Experimental System: recombinant PRL-1 (Homo sapiens, UniProt Q93096)
Construct: 6xHis (N, cleaved yes); made in house; host or cells: E. coli One Shot BL21 Star
Sequence (Q93096 1-173): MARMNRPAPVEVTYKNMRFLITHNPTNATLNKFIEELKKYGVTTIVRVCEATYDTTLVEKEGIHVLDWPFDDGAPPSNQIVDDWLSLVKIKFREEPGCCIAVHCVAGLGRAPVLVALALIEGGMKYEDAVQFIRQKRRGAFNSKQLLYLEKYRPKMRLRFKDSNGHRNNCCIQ
Test: In vitro phosphatase assay (DiFMUP hydrolysis), PRL-1; further: test concentration or dose not given here
Format: biochemical
Assay Context: FDA-approved drug screen; compared to DMSO
Entries and their % Phosphatase Activity (compared to DMSO) PRL-1 values follow.
Number only, in %; omit the unit.

Some solved entries appear below for comparison.
Record Smiles: N#C/C(=C1/SC[C@@H](c2ccc(Cl)cc2Cl)S1)n1ccnc1
Experimental System: recombinant PRL-1 (Homo sapiens, UniProt Q93096)
Numeric Readout: 98
--
Record Smiles: Cc1cccc(C)c1OCC(=O)N[C@@H](Cc1ccccc1)[C@@H](O)C[C@H](Cc1ccccc1)NC(=O)[C@H](C(C)C)N1CCCNC1=O
Experimental System: recombinant PRL-1 (Homo sapiens, UniProt Q93096)
Numeric Readout: 90

Problem: # query: % Phosphatase Activity (compared to DMSO) PRL-1 | item COC(=O)N(C)c1c(N)nc(-c2nn(Cc3ccccc3F)c3ncccc23)nc1N | system: recombinant PRL-1 (Homo sapiens, UniProt Q93096)
Solution: 99

Problem: # query: % Phosphatase Activity (compared to DMSO) PRL-1 | item CN1CCN(c2c(F)cc3c(=O)c(C(=O)O)cn4c3c2OCN4C)CC1 | system: recombinant PRL-1 (Homo sapiens, UniProt Q93096)
Solution: 345
